- assayName: qHTS assay to identify small molecule agonists of the TGF-beta/Smad signaling pathway - cell viability counter screen (AID 1346829); also: nearly all actives have a fitted effect of over 45% in size
- settings: SBE-bla HEK293T viability, CellTiter-Glo luminescence, 5 h; series mostly up to 76.8 µM
Results filed as inconclusive are left out. Activity calls are given as the source filed them. Calls follow the shape of the dose curve; as a rule, active = well fitted cell-killing curve with a large enough effect in the repeat runs; inconclusive = weak or mixed curves, or effect the other way; inactive = flat fitted curve, though single readings scatter.
Answer with one of the outcomes given here: active, inactive

Exercise: Could you please tell me the result logged for `Oc1ccc([C@H]2CNCc3c2ccc(O)c3O)cc1O` in this assay?
Solution: inactive

Exercise: Could you please tell me the result logged for `Oc1ccc(Cl)c(Cl)c1` in this assay?
Solution: inactive

Exercise: Could you please tell me the result logged for `Brc1ccc(Oc2ccc(Br)cc2Br)c(Br)c1` in this assay?
Solution: inactive

Exercise: Could you please tell me the result logged for `CN` in this assay?
Solution: inactive

Exercise: Could you please tell me the result logged for `O=C(O)[C@H](O)[C@@H](O)C(=O)O` in this assay?
Solution: inactive

Exercise: Could you please tell me the result logged for `CCC[CH2][Sn]([CH2]CCC)([CH2]CCC)[O][Sn]([CH2]CCC)([CH2]CCC)[CH2]CCC` in this assay?
Solution: active

Exercise: Could you please tell me the result logged for CC1CN1 (configuration not stated) in this assay?
Solution: inactive

Exercise: Could you please tell me the result logged for `CCN(CC)CCN1C(=O)CN=C(c2ccccc2F)c2cc(Cl)ccc21` in this assay?
Solution: inactive

Exercise: Could you please tell me the result logged for CCC(C)c1cccc(C(C)CC)c1O (configuration not stated) in this assay?
Solution: inactive

Exercise: Could you please tell me the result logged for `Clc1cc(Cl)c(-c2cc(Cl)c(Cl)cc2Cl)cc1Cl` in this assay?
Solution: inactive

Exercise: Could you please tell me the result logged for `O.O.O.O=C([O-])[C@H]([O-])[C@@H]([O-])C(=O)[O-].O=C([O-])[C@H]([O-])[C@@H]([O-])C(=O)[O-].[K+].[K+].[Sb+3].[Sb+3]` in this assay?
Solution: inactive

Exercise: Could you please tell me the result logged for CC(C)C(Br)C(=O)NC(N)=O (configuration not stated) in this assay?
Solution: inactive

---

- assayName: qHTS assay to identify small molecule antagonists of the estrogen related receptor (ERR) signaling pathway from Tox21 library - cell viability counter screen (AID 1224834); also: nearly all actives have a fitted effect of over 30% in size
- settings: ERR reporter cells viability, CellTiter-Fluor, 17.5 h; series mostly up to 92.4 µM
Inconclusive results are not listed. Calls of active or inactive are those of the source. Calls follow the shape of the dose curve; as a rule, active = well fitted cell-killing curve with a large enough effect in the repeat runs; inconclusive = weak or mixed curves; inactive = flat fitted curve, though single readings scatter.
Answer with one of the outcomes given here: T for active, F for inactive

Exercise: Could you please tell me the result logged for `O.O.O.O.O.O.O=S(=O)([O-])[O-].[Ni+2]` in this assay?
Solution: F

Exercise: Could you please tell me the result logged for `CSC(=O)c1c(C(F)F)nc(C(F)(F)F)c(C(=O)SC)c1CC(C)C` in this assay?
Solution: F

Exercise: Could you please tell me the result logged for `CCOP(=O)(OCC)Oc1nc(Cl)c(Cl)cc1Cl` in this assay?
Solution: F

Exercise: Could you please tell me the result logged for CCC(C)Nc1c([N+](=O)[O-])cc(C(C)(C)C)cc1[N+](=O)[O-] (stereo unspecified) in this assay?
Solution: F

Exercise: Could you please tell me the result logged for `Brc1ccc(Oc2ccc(Br)cc2Br)c(Br)c1` in this assay?
Solution: F

Exercise: Could you please tell me the result logged for `[C-]1=CC=CC1.[Cl][Zr+2][Cl].c1cc[cH-]c1` in this assay?
Solution: F

Exercise: Could you please tell me the result logged for `Cc1cc2c3c(c1)C(c1ccccc1)=N[C@@H](NC(=O)c1ccncc1)C(=O)N3CC2` in this assay?
Solution: F

Exercise: Could you please tell me the result logged for `[Cl][Hg][c]1ccccc1` in this assay?
Solution: T

Exercise: Could you please tell me the result logged for `CCOP(=S)(OCC)Oc1cc(C)nc(N(CC)CC)n1` in this assay?
Solution: F

Exercise: Could you please tell me the result logged for CN1C2CCC(C)(C)C1CC(OC(=O)C(O)(c1cccs1)c1cccs1)C2 (stereo unspecified) in this assay?
Solution: F

Exercise: Could you please tell me the result logged for O=S1OCC2C(CO1)C1(Cl)C(Cl)=C(Cl)C2(Cl)C1(Cl)Cl (stereo unspecified) in this assay?
Solution: T

---

- assayName: qHTS assay to identify small molecule antagonists of the androgen receptor (AR) signaling pathway using the MDA cell line in the presence of 0.5 nM R1881 - cell viability counter screen (AID 1259242); also: nearly all actives have a fitted effect of over 45% in size
- settings: MDA-kb2 viability, CellTiter-Fluor protease fluorescence, 16 h; series mostly up to 92.4 µM
- Description: U.S. Tox21 Program National Center for Advancing Translational Sciences [NCATS] NIH Chemical Genomics Center [NCGC] U.S. Environmental Protection Agency [EPA] National Institutes of Environmental Health Sciences [NIEHS] National Toxicology Program [NTP] U.S. Food and Drug Administration [FDA] Tox21 Assay Overview: Androgen receptor (AR) is an important member of the nuclear receptor family. Its signaling plays a critical role in AR-dependent prostate cancer and other androgen related diseases. […]
Results filed as inconclusive are left out. Activity calls are given as the source filed them. The call rests on the fitted dose curve; in most records, active means well fitted cell-killing curve with a large enough effect in the repeat runs; inconclusive means weak or mixed curves, or effect the other way; inactive means flat fitted curve, though single readings scatter.
Answer with one of the outcomes given here: label 1 for active, label 0 for inactive

Exercise: Could you please tell me the result logged for `CCOP(=O)(Sc1ccccc1)Sc1ccccc1` in this assay?
Solution: label 0

Exercise: Could you please tell me the result logged for `BrCC(Br)(Br)Br` in this assay?
Solution: label 0

Exercise: Could you please tell me the result logged for `S=C=Nc1ccccc1` in this assay?
Solution: label 0

Exercise: Could you please tell me the result logged for `O.O.O.O.O.O.O.O=S(=O)([O-])[O-].[Co+2]` in this assay?
Solution: label 0

Exercise: Could you please tell me the result logged for `Cc1cccc(Cc2cnc[nH]2)c1C` in this assay?
Solution: label 0

Exercise: Could you please tell me the result logged for `Cc1ccccc1OP(=O)(Oc1ccccc1C)Oc1ccccc1C` in this assay?
Solution: label 0

Exercise: Could you please tell me the result logged for `Cc1ccc([N+](=O)[O-])[c]2c1[O][Hg]2` in this assay?
Solution: label 1

Exercise: Could you please tell me the result logged for `O=c1[nH]c(Cl)c(Cl)cc1Cl` in this assay?
Solution: label 0

Exercise: Could you please tell me the result logged for `ClC1=C(Cl)[C@]2(Cl)[C@@H]3[C@H]4C[C@H]([C@@H]5O[C@H]45)[C@@H]3[C@@]1(Cl)C2(Cl)Cl` in this assay?
Solution: label 0

Exercise: Could you please tell me the result logged for `COc1ccc2[nH]cc(CCN(C(C)C)C(C)C)c2c1` in this assay?
Solution: label 0

Exercise: Could you please tell me the result logged for `CN1CCc2cc(Cl)c(O)cc2[C@H]2c3ccccc3CC[C@@H]21` in this assay?
Solution: label 0

Exercise: Could you please tell me the result logged for `O.O.O.O.O.O.O=S(=O)([O-])[O-].[Ni+2]` in this assay?
Solution: label 0

---

- assayName: qHTS assay to identify small molecule antagonists of the estrogen receptor alpha (ER-alpha) signaling pathway - cell viability counter screen (AID 743074);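 also: HEK293 cells carrying ER-alpha-UAS-bla reporter stimulated with 17beta-estradiol; nearly all actives have a fitted effect of over 45% in size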
- settings: ERalpha-bla HEK293 viability, CellTiter-Glo luminescence, 18 h; series mostly up to 69.4 µM
Inconclusive results are not listed. Calls of active or inactive are those of the source. The call rests on the fitted dose curve.
Answer with one of the outcomes given here: active, inactive

Exercise: Could you please tell me the result logged for `CNN` in this assay?
Solution: inactive

Exercise: Could you please tell me the result logged for `O=NN(CCO)CCO` in this assay?
Solution: inactive

Exercise: Could you please tell me the result logged for CCCC[N+]1(C)CCCC1 (tested in a mixture with another compound) in this assay?
Solution: inactive

Exercise: Could you please tell me the result logged for `N#Cc1c[nH]cc1-c1cccc2c1OC(F)(F)O2` in this assay?
Solution: inactive

Exercise: Could you please tell me the result logged for `[O]=[Cr](=[O])([OH])[O][Cr](=[O])(=[O])[OH]` in this assay?
Solution: inactive

Exercise: Could you please tell me the result logged for `N#Cc1ccc(N(CC(N)=O)CC(F)(F)F)cc1C(F)(F)F` in this assay?
Solution: inactive

Exercise: Could you please tell me the result logged for `ClC(Cl)C(Cl)(Cl)Cl` in this assay?
Solution: inactive

Exercise: Could you please tell me the result logged for CCC(C)c1cccc(C(C)CC)c1O (configuration not stated) in this assay?
Solution: inactive

Exercise: Could you please tell me the result logged for `CCN(CC)CCc1c[nH]c2ccccc12` in this assay?
Solution: inactive

Exercise: Could you please tell me the result logged for `Cc1c([N+](=O)[O-])cc2c(c1[N+](=O)[O-])C(C)(C)CC2(C)C` in this assay?
Solution: inactive

Exercise: Could you please tell me the result logged for `CCOC(=O)Cc1ccccc1` in this assay?
Solution: inactive

Exercise: Could you please tell me the result logged for `CC1(C)[C@H](/C=C2\CCSC2=O)[C@@H]1C(=O)OCc1coc(Cc2ccccc2)c1` in this assay?
Solution: inactive

Exercise: Could you please tell me the result logged for `CCCCN(CCCC)C(=S)S` in this assay?
Solution: inactive

Exercise: Could you please tell me the result logged for CN1[C@@H]2CC[C@H]1CC(O)C2 (some centres not stated) in this assay?
Solution: inactive

Exercise: Could you please tell me the result logged for `COc1nc(C)nc(NC(=O)NS(=O)(=O)c2ccccc2Cl)n1` in this assay?
Solution: inactive

Exercise: Could you please tell me the result logged for `COC(=O)c1ccccc1S(=O)(=O)NC(=O)Nc1nc(C)nc(OC)n1` in this assay?
Solution: inactive

Exercise: Could you please tell me the result logged for `CCCCCCC[CH2][Sn]([Cl])([Cl])[CH2]CCCCCCC` in this assay?
Solution: active

Exercise: Could you please tell me the result logged for `CCNS(=O)(=O)C(F)(F)C(F)(F)C(F)(F)C(F)(F)C(F)(F)C(F)(F)C(F)(F)C(F)(F)F` in this assay?
Solution: inactive

Exercise: Could you please tell me the result logged for `CN1C(=O)[C@@H](NC(=O)c2cc3ccccc3[nH]2)N=C(c2ccccc2)c2ccccc21` in this assay?
Solution: inactive

Exercise: Could you please tell me the result logged for `C#CC1(O)CCCCC1` in this assay?
Solution: inactive

Exercise: Could you please tell me the result logged for `ClSC(Cl)(Cl)Cl` in this assay?
Solution: inactive

Exercise: Could you please tell me the result logged for `CC(=O)O.CC(=O)O.CC(=O)O.CC(=O)O.CC(=O)O.CC(=O)O.CC(=O)O.O.O.[Cr].[Cr].[Cr]` in this assay?
Solution: inactive

Exercise: Could you please tell me the result logged for `Brc1ccc(Oc2ccc(Br)cc2Br)c(Br)c1` in this assay?
Solution: inactive

Exercise: Could you please tell me the result logged for `Cc1nn(-c2cc(NS(C)(=O)=O)c(Cl)cc2Cl)c(=O)n1C(F)F` in this assay?
Solution: inactive

Exercise: Could you please tell me the result logged for `c1ccc(Nc2ccc(Nc3ccccc3)cc2)cc1` in this assay?
Solution: inactive

Exercise: Could you please tell me the result logged for CCOP(=S)(OCC)SC(CCl)N1C(=O)c2ccccc2C1=O (configuration not stated) in this assay?
Solution: inactive

Exercise: Could you please tell me the result logged for `O=Cc1ccccc1` in this assay?
Solution: inactive
